TARGET: BCR-ABL protein (Homo sapiens)
Sequence (P00519 with tags, fused parts or gaps): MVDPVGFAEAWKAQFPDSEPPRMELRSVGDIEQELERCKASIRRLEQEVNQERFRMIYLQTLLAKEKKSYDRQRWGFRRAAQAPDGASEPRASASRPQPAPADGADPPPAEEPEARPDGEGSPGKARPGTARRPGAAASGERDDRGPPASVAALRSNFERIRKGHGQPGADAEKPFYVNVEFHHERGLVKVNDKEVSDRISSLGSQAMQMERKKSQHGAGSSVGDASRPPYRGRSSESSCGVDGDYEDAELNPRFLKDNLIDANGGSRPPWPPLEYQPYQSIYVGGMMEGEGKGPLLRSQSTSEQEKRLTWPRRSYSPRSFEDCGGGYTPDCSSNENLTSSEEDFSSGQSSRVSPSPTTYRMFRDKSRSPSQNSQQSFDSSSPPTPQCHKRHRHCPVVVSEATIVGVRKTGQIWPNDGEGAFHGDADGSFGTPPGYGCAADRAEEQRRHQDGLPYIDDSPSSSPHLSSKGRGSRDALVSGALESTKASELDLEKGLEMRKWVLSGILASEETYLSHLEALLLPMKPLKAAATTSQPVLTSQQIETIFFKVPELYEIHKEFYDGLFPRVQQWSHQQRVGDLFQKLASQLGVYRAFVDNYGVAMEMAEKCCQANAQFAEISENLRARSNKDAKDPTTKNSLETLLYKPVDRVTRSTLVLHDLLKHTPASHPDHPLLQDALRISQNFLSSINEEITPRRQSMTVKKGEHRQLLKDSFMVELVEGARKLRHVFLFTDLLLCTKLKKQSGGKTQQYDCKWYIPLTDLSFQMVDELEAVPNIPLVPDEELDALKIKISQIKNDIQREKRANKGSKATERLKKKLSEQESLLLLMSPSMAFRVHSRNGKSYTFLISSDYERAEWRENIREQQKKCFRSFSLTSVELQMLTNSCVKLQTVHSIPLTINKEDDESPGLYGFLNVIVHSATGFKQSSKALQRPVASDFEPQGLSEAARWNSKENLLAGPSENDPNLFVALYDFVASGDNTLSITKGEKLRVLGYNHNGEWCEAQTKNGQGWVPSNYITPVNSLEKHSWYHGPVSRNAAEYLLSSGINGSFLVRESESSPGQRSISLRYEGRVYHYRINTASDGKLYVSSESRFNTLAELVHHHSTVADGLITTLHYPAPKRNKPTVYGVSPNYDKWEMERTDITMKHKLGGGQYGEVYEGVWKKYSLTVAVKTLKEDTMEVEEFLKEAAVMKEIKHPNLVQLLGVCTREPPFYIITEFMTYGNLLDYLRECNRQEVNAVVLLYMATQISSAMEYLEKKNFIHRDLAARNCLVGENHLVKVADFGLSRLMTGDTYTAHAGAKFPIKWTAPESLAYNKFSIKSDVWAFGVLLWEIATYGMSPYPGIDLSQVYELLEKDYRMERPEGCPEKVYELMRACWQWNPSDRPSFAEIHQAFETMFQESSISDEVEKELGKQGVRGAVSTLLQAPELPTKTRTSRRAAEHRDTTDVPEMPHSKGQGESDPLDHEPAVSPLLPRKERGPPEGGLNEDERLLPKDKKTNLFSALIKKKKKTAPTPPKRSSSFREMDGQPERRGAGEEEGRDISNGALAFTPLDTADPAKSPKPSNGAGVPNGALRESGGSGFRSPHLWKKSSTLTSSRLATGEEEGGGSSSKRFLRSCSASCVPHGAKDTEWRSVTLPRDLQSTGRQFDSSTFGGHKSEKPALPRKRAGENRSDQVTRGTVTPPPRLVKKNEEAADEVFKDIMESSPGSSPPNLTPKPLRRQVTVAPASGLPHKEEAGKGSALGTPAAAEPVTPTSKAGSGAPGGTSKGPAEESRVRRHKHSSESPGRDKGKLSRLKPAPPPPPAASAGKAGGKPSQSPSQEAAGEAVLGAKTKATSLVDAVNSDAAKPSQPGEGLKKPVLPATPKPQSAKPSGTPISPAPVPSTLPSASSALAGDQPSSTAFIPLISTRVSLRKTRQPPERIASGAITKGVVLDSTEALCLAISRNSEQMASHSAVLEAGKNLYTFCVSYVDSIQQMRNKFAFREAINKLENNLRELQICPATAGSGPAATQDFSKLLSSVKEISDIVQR
PROCEDURE DETAILS: Western blot degradation of BCR-ABL in K562 cells
Type: cell-based
Design: Western blot was used to detect the expression of BCR-ABL and c-ABL protein in K562 cells; BCR (fusion partner, P11274); endogenous in cells; host or cells: K562; the other entry of the earlier key: BCR (P11274, Breakpoint cluster region protein)
EXPERIMENTAL CONTEXT: 16 hours, 1 nM-10 μM
ASSAY ENDPOINT: DC50

Req: Name the recorded DC50 for Cc1nc(Nc2ncc(C(=O)Nc3c(C)cccc3Cl)s2)cc(N2CCN(C(=O)CCCCNc3cccc4c3CN(C3CCC(=O)NC3=O)C4=O)CC2)n1 (stereo not drawn) .
Resp: 1 to 10 nM

Req: Would you kindly repeat that for "Cc1ccc(NC(=O)c2ccc(CN3CCN(C(=O)CCOCCOCCOCCOCCC(=O)N[C@H](C(=O)N4C[C@H](O)C[C@H]4C(=O)NCc4ccc(-c5scnc5C)cc4)C(C)(C)C)CC3)cc2)cc1Nc1nccc(-c2cccnc2)n1" ?
Resp: 1000 nM

Next:
Req: Would you mind telling me what DC50 value was observed for COc1cc(Nc2c(C#N)cnc3cc(OCCCN4CCN(C(=O)CCC(=O)Nc5cccc6c5CN(C5CCC(=O)NC5=O)C6=O)CC4)c(OC)cc23)c(Cl)cc1Cl (stereo not drawn) ?
Resp: 10 to 100 nM

Data provenance is patent US11639343B2.
